assay.name: xn = mol fraction of the nth substance listed, in the solute-free solvent
condition.description: 303.15 K; x2 = 0.3
Everything with solubility (g/100 g solution) lower than 4 is N; everything else, including exactly 4, is Y.

Below are worked cases with known answers.
CC1(C)SC2C(NC(=O)C(NC(=O)N3CCNC3=O)c3ccccc3)C(=O)N2C1C(=O)O (stereo unspecified) + CO + CC(C)O ... N
O=c1ccc2ccccc2o1 + CO + O ... Y
CCOC(=O)C1=CC2(CC)CCCN3CCc4c(n1c1ccccc41)C32 (stereo unspecified) + CCO + O ... N
CCCCN1CCCCC1C(=O)Nc1c(C)cccc1C.Cl.O (stereo unspecified) + CO + O ... Y

Moving on to the next molecule.
Given O=c1ccc2ccccc2o1 + CC(C)=O + O , state whether its solubility (g/100 g solution) is at least 4.
Y

* * *

Entries annotated with measured solubility (g/100 g solution)
assay.name: xn = mol fraction of the nth substance listed, in the solute-free solvent
condition.description: 323.15 K; x2 = 0.6

Item CCOC(=O)C1=CC2(CC)CCCN3CCc4c(n1c1ccccc41)C32 (stereo not given) + CCO + O has what recorded solubility (g/100 g solution)?
1.54

Endpoint output: solubility (g/100 g solution) of CCCCN1CCCCC1C(=O)Nc1c(C)cccc1C.Cl.O (stereo not given) + CCO + O . Value?
15.1

Query (compound): CC1(C)SC2C(NC(=O)C(NC(=O)N3CCNC3=O)c3ccccc3)C(=O)N2C1C(=O)O (stereo not given) + CO + CC(C)O ; field requested: solubility (g/100 g solution)
0.994

Which solubility (g/100 g solution) reading was recorded for the compound O=c1[nH]cc(F)c(=O)[nH]1 + CO + C1CCOC1 ?
0.862

Which solubility (g/100 g solution) is listed for CCCCN1CCCCC1C(=O)Nc1c(C)cccc1C.Cl.O (stereo not given) + CO + O ?
23.4

* * *

assay.name: xn = mol fraction of the nth substance listed, in the solute-free solvent
condition.description: 308.15 K; x2 = 0.1139
Parameter solubility (g/100 g solution): see the listing below.
Simply state the number, no unit and no words.

Requested field: solubility (g/100 g solution). Item: COC(=O)C1=C(C)NC(C)=C(C(=O)OCC(C)C)C1c1ccccc1[N+](=O)[O-] (centres undefined) + CCCO + O
3.12

* * *

Some compounds, each annotated with its measured solubility (g/100 g solution).
assay.name: xn = mol fraction of the nth substance listed, in the solute-free solvent
condition.description: 298.15 K; x2 = 0.9
Form rule: numeric answer, no unit written next to it.

Given the compound CN1CCN(C(=O)OC2c3nccnc3C(=O)N2c2ccc(Cl)cn2)CC1 (configuration not stated) + CC#N + O , what is its reported solubility (g/100 g solution)?
3.55

Look up solubility (g/100 g solution): CN1CCN(C(=O)OC2c3nccnc3C(=O)N2c2ccc(Cl)cn2)CC1 (configuration not stated) + CC(C)=O + O
1.94

Item CC1(C)SC2C(NC(=O)C(NC(=O)N3CCNC3=O)c3ccccc3)C(=O)N2C1C(=O)O (configuration not stated) + CO + CC(C)O has what recorded solubility (g/100 g solution)?
0.602

What value of solubility (g/100 g solution) has been reported for the following compound? CCCCN1CCCCC1C(=O)Nc1c(C)cccc1C.Cl.O (configuration not stated) + CO + O
10.1

// solubility (g/100 g solution) lookup, key: CCOC(=O)C1=CC2(CC)CCCN3CCc4c(n1c1ccccc41)C32 (configuration not stated) + CCO + O
0.766

# input compound: O=c1ccc2ccccc2o1 + CO + O ; wanted: its solubility (g/100 g solution)
25.5

May I ask what solubility (g/100 g solution) has been recorded for CN1CCN(C(=O)OC2c3nccnc3C(=O)N2c2ccc(Cl)cn2)CC1 (configuration not stated) + CCO + O ?
0.647

// provenance: the CheMixHub drug solubility set
